assayProtocol: physchem
experimentalContext: 25 °C, water
quantity: solubility

"Nc1c(CC(=O)O)cccc1C(=O)c1ccc(Br)cc1" has a reported solubility of ~150 µg/mL
